measuredOn: Mu-type opioid receptor (Cavia porcellus, UniProt P97266)
Sequence (P97266 whole entry): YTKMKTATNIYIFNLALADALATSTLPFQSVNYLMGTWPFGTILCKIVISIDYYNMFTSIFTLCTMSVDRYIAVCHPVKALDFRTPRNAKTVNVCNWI
pKi: −log10 of the molar value.
Decision: pKi compared against 9; not below it gives Yes, below it gives No.

Worked set:
>  <molecule>
CN1CC[C@]23c4c5ccc(C(N)=O)c4O[C@H]2[C@@H](O)C=C[C@H]3[C@H]1C5

>  <assignedLabel>
No

$$$$
>  <molecule>
C[C@@H]1[C@@H]2Cc3ccc(C(N)=O)cc3[C@@]1(C)CCN2C[C@@H]1CCCO1

>  <assignedLabel>
Yes

$$$$
>  <molecule>
C[C@@H]1[C@@H]2Cc3ccc(C(N)=O)cc3[C@@]1(C)CCN2C[C@H]1CCCO1

>  <assignedLabel>
No

$$$$
>  <molecule>
C[C@@H]1[C@@H]2Cc3ccc(O)cc3[C@@]1(C)CCN2C[C@H]1CCCO1

>  <assignedLabel>
No

$$$$

Shifting focus to the molecule that follows.
Is the recorded value of pKi equal to or greater than 9 for this molecule? CC1C2Cc3ccc(O)cc3[C@@]1(C)CCN2C[C@@H]1CCCO1 (single isomer, unassigned) Yes

---

measuredOn: Delta-type opioid receptor (Homo sapiens, UniProt P41143)
Sequence (P41143 whole entry): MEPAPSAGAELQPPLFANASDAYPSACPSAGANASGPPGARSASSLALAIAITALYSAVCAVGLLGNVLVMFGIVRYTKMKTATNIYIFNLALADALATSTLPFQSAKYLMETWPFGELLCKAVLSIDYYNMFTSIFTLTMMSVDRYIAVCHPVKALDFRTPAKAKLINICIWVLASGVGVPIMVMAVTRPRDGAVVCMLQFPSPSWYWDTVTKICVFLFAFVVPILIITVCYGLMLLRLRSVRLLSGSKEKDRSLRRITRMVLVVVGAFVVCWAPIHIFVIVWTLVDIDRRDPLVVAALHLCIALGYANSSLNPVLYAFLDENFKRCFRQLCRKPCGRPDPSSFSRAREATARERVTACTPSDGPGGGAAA
measurementNotes: Displacement of [3H]Naltrindole form human delta opioid receptor expressed in CHO cells
Reported values of Ki for individual entries

Use the examples below as a reference point.
>  <molecule>
C=C1CC[C@@]2(O)[C@H]3Cc4ccc(C(N)=O)c5c4[C@@]2(CCN3CC2CC2)[C@H]1O5

>  <Ki>
67 nM

$$$$
>  <molecule>
CN(C)C[C@H]1CCCC[C@]1(O)c1cccc(C(N)=O)c1 (relative stereo)

>  <Ki>
2400 nM

$$$$
>  <molecule>
CC1C2Cc3ccc(C(N)=O)cc3C1(C)CCN2CCc1ccccc1 (centres undefined)

>  <Ki>
1.2 nM

$$$$
>  <molecule>
C=CCN1CC[C@]23c4c5ccc(O)c4O[C@H]2[C@@H](O)C=C[C@H]3[C@H]1C5 [NALORPHINE]

>  <Ki>
120 nM

$$$$
>  <molecule>
CC(C)=CCN1CC[C@@]2(C)c3cc(O)ccc3C[C@@H]1[C@@H]2C (relative stereo)

>  <Ki>
180 nM

$$$$

Field request: Ki | item: NC(=O)c1ccc2c3c1O[C@H]1[C@H](O)CC[C@@]4(O)[C@@H](C2)N(CC2CC2)CC[C@]314 > 10000 nM

Field request: Ki | item: C[C@H]1[C@@H]2Cc3ccc(O)cc3[C@]1(C)CCN2C [METAZOCINE] 140 nM

Field request: Ki | item: NC(=O)c1ccc2c(c1)[C@@]13CCCC[C@@]1(O)[C@@H](C2)N(CC1CCC1)CC3 14 nM

Field request: Ki | item: CC1C2Cc3ccc(C(N)=O)cc3C1(C)CCN2CC1CC1 (centres undefined) 5.2 nM

---

System: CHO
measurementNotes: Ratio of Ki for human delta opioid receptor to Ki for human kappa opioid receptor expressed in CHO cells
Type: cell-based
Lab note - cut at 20 for Ratio Ki: fulfilled if strictly below, not fulfilled if not.

Worked set:
>  <molecule>
C[C@H]1[C@@H]2Cc3ccc(O)cc3[C@]1(C)CCN2C [METAZOCINE]

>  <assignedLabel>
fulfilled

$$$$
>  <molecule>
CC1C2Cc3ccc(C(N)=O)cc3C1(C)CCN2CCc1ccccc1 (stereo not given)

>  <assignedLabel>
fulfilled

$$$$
>  <molecule>
NC(=O)c1ccc2c(c1)[C@@]13CCCC[C@@]1(O)[C@@H](C2)N(CC1CCC1)CC3

>  <assignedLabel>
not fulfilled

$$$$

Is the reported Ratio Ki for C[C@H]1C2Cc3ccc(O)cc3[C@@]1(C)CCN2CCc1ccccc1 strictly below 20? fulfilled

Is the reported Ratio Ki for NC(=O)c1ccc2c3c1O[C@H]1C(=O)CC[C@@]4(O)[C@@H](C2)N(CC2CC2)CC[C@]314 strictly below 20? not fulfilled

Is the reported Ratio Ki for C=C1CC[C@@]2(O)[C@H]3Cc4ccc(C(N)=O)c5c4[C@@]2(CCN3CC2CC2)[C@H]1O5 strictly below 20? not fulfilled
